- Target Entity: HLA-B*54:01
- Assay Name: IEDB peptide-MHC binding, purified MHC/competitive/radioactivity; filed as Kd, often an IC50 or EC50 that approximates it; bounds were set here for any values at or beyond the usual limits of such assays
- Measurement Setup: source organism: Triticum aestivum
Outcome Measure: pKd
Answers are plain numbers, as −log10 of the molar value.

Task: HLA-B*54:01 / pKd / `QPFLQPQL` : value?
Output: 5.20

----------
Could you please report measured Kd for the items listed next?
- Target Entity: HLA-B*40:01
- Assay Name: IEDB peptide-MHC binding, purified MHC/direct/fluorescence; filed as Kd, often an IC50 or EC50 that approximates it; bounds were set here for any values at or beyond the usual limits of such assays
- Measurement Setup: source organism: Mycobacterium tuberculosis

- Sequence Data: "RPRLHSISF"
  Value Observed: "≥ 20 µM"

Moving on to the next sequence.
Task: If you can, please state the reported Kd value of `RPAGARAAF` .
Output: ≥ 20 µM

----------
- Target Entity: HLA-A*11:01
- Assay Name: IEDB peptide-MHC binding, purified MHC/direct/fluorescence; filed as Kd, often an IC50 or EC50 that approximates it; bounds were set here for any values at or beyond the usual limits of such assays
- Measurement Setup: source organism: Yellow fever virus 1899/81
Outcome Measure: Kd

Task: If you can, please state the reported Kd value of `RADEINAIL` .
Output: ≥ 20 µM

----------
Could you please report measured pKd for the items listed next?
- Target Entity: HLA-B*15:01
- Assay Name: IEDB peptide-MHC binding, purified MHC/competitive/fluorescence; filed as Kd, often an IC50 or EC50 that approximates it; bounds were set here for any values at or beyond the usual limits of such assays
- Measurement Setup: source organism: Escherichia coli B171
Numbers only, as −log10 of the molar value.

- Sequence Data: "VQYRGLYQI"
  pKd: 6.97

Task: If you can, please state the reported pKd value of `VMAGVFARY` .
Output: 7.21

----------
- Target Entity: HLA-A*02:01
- Assay Name: IEDB peptide-MHC binding, purified MHC/direct/fluorescence; filed as Kd, often an IC50 or EC50 that approximates it; bounds were set here for any values at or beyond the usual limits of such assays
- Measurement Setup: source organism: Homo sapiens
Could you please report measured pKd for the items listed next?
Answers are plain numbers, as −log10 of the molar value.

- Sequence Data: "RVMAPRALL"
  Value Observed: 4.81

Moving on to the next sequence.
Task: If you can, please state the reported pKd value of `PMVHSTFLI` .
Output: 5.61

----------
- Target Entity: HLA-B*15:01
- Assay Name: IEDB peptide-MHC binding, purified MHC/direct/fluorescence; filed as Kd, often an IC50 or EC50 that approximates it; bounds were set here for any values at or beyond the usual limits of such assays
- Measurement Setup: source organism: Orthohantavirus andesense
pKd: −log10 of the molar value.
Outcome Measure: pKd

Task: If you can, please state the reported pKd value of `AYDHGNVIL` .
Output: ≤ 4.70

----------
- Target Entity: HLA-B*07:02
- Assay Name: IEDB peptide-MHC binding, purified MHC/direct/fluorescence; filed as Kd, often an IC50 or EC50 that approximates it; bounds were set here for any values at or beyond the usual limits of such assays
- Measurement Setup: source organism: Mammarenavirus machupoense
pKd: −log10 of the molar value.
Outcome Measure: pKd

Task: If you can, please state the reported pKd value of `FHEFLSSKL` .
Output: ≤ 4.70

----------
- Target Entity: HLA-B*15:42
- Assay Name: IEDB peptide-MHC binding, purified MHC/competitive/fluorescence; filed as Kd, often an IC50 or EC50 that approximates it; bounds were set here for any values at or beyond the usual limits of such assays
- Measurement Setup: source organism: Mycobacterium tuberculosis variant bovis BCG str. Pasteur 1173P2
Outcome Measure: Kd

Task: If you can, please state the reported Kd value of `RPRLHSISF` .
Output: ≥ 5 µM

----------
- Target Entity: HLA-A*02:01
- Assay Name: IEDB peptide-MHC binding, purified MHC/direct/fluorescence; filed as Kd, often an IC50 or EC50 that approximates it; bounds were set here for any values at or beyond the usual limits of such assays
- Measurement Setup: source organism: Oligoflexia bacterium
Outcome Measure: Kd
Mention the unit after the number when you answer.

Task: If you can, please state the reported Kd value of `EYSGGLHGV` .
Output: 18 µM

----------
- Target Entity: HLA-B*51:01
- Assay Name: IEDB peptide-MHC binding, purified MHC/competitive/fluorescence; filed as Kd, often an IC50 or EC50 that approximates it; bounds were set here for any values at or beyond the usual limits of such assays
- Measurement Setup: source organism: Salmonella enterica subsp. enterica serovar Typhi str. CT18
pKd: −log10 of the molar value.
Outcome Measure: pKd

Task: If you can, please state the reported pKd value of `KSKPRIHGY` .
Output: ≤ 4.70

----------
- Target Entity: HLA-B*40:01
- Assay Name: IEDB peptide-MHC binding, purified MHC/competitive/radioactivity; filed as Kd, often an IC50 or EC50 that approximates it; bounds were set here for any values at or beyond the usual limits of such assays
- Measurement Setup: source organism: SARS coronavirus Tor2
pKd: −log10 of the molar value.
Tag: t if measured pKd is not below 6, f if it is.

Field: example entries. Status: answers known.
- Sequence Data: "KEEILGTVSW"
  Category: "f"
- Sequence Data: "FDAWFSQRGG"
  Category: "f"
- Sequence Data: "DESASKSASV"
  Category: "f"
- Sequence Data: "REAPAHVST"
  Category: "t"

Now consider the entry below.
Task: Would you say `RELHLSWEV` shows pKd at minimum 6?
Output: t

----------
- Target Entity: HLA-A*02:02
- Assay Name: IEDB peptide-MHC binding, purified MHC/competitive/radioactivity; filed as Kd, often an IC50 or EC50 that approximates it; bounds were set here for any values at or beyond the usual limits of such assays
- Measurement Setup: source organism: Mammarenavirus brazilense
Outcome Measure: Kd (nM)
Numbers only, in nM.

Task: HLA-A*02:02 / Kd / `SNPNLFWAV` : value?
Output: 170

----------
- Target Entity: HLA-A*03:01
- Assay Name: IEDB peptide-MHC binding, purified MHC/competitive/fluorescence; filed as Kd, often an IC50 or EC50 that approximates it; bounds were set here for any values at or beyond the usual limits of such assays
- Measurement Setup: source organism: Vibrio vulnificus YJ016
Outcome Measure: Kd

Task: If you can, please state the reported Kd value of `IALPVAWLF` .
Output: ≥ 20 µM

----------
- Target Entity: HLA-B*58:01
- Assay Name: IEDB peptide-MHC binding, purified MHC/direct/fluorescence; filed as Kd, often an IC50 or EC50 that approximates it; bounds were set here for any values at or beyond the usual limits of such assays
- Measurement Setup: source organism: Escherichia coli O157:H7
Could you please report measured Kd for the items listed next?

Past entries and their recorded results:
- Sequence Data: "WLSVIAFGK"
  Kd: "≥ 20 µM"
- Sequence Data: "LLDPLYFEV"
  Kd: "≥ 20 µM"

Moving on to the next sequence.
Task: If you can, please state the reported Kd value of `VTRQIHNPR` .
Output: ≥ 20 µM

----------
- Target Entity: HLA-A*02:03
- Assay Name: IEDB peptide-MHC binding, purified MHC/direct/fluorescence; filed as Kd, often an IC50 or EC50 that approximates it; bounds were set here for any values at or beyond the usual limits of such assays
- Measurement Setup: source organism: Escherichia coli O157:H7 str. EC4486
Outcome Measure: Kd

Task: If you can, please state the reported Kd value of `YAMMSLFDM` .
Output: ≥ 20 µM

----------
- Target Entity: HLA-B*39:01
- Assay Name: IEDB peptide-MHC binding, purified MHC/direct/fluorescence; filed as Kd, often an IC50 or EC50 that approximates it; bounds were set here for any values at or beyond the usual limits of such assays
- Measurement Setup: source organism: Cowpox virus
Outcome Measure: Kd (µM)
Numbers only, in µM.

Task: HLA-B*39:01 / Kd / `RHDITGFIL` : value?
Output: 0.0235

----------
- Target Entity: HLA-A*31:01
- Assay Name: IEDB peptide-MHC binding, purified MHC/competitive/radioactivity; filed as Kd, often an IC50 or EC50 that approximates it; bounds were set here for any values at or beyond the usual limits of such assays
- Measurement Setup: source organism: Mammarenavirus guanaritoense
Outcome Measure: pKd
Answers are plain numbers, as −log10 of the molar value.

Parameters: items (list). Returns: pKd for each item.
1. RSKIEVGIRH
2. TCITSMAER

Output:
5.79
6.25

----------
- Target Entity: HLA-B*15:09
- Assay Name: IEDB peptide-MHC binding, purified MHC/direct/fluorescence; filed as Kd, often an IC50 or EC50 that approximates it; bounds were set here for any values at or beyond the usual limits of such assays
- Measurement Setup: source organism: Mycobacterium tuberculosis str. Haarlem
Outcome Measure: Kd

Task: If you can, please state the reported Kd value of `RPAGARAAF` .
Output: ≥ 20 µM
